molecular target: KIF18a-Microtubule Complex (Homo sapiens (Human)); assay: Binding kinetics to KIF18a-microtubule complex (global progress curve analysis); settings: read-out: KI (determined from binding kinetic assay koff/kon); koff/kon
Here, each record is paired with measured log10 of Ki data.
Scale type: logarithmic (base 10). Underlying Ki unit: nM.

Record excerpt, results attached:
CS(=O)(=O)Nc1ccc2c(c1)C1(CCCCC1)CN2C(=O)c1cccc(S(=O)(=O)N2CCC(F)(F)CC2)c1	0.26
CS(=O)(=O)Nc1ccc2c(c1)C1(CCC3(CC3)CC1)CN2C(=O)c1cccc(S(=O)(=O)NC23CC(C2)C3)c1	-0.59
CC(C)(C)NS(=O)(=O)c1cccc(C(=O)N2CC3(CCC4(CC4)CC3)c3cc(NS(=O)(=O)C4CC4)ccc32)c1	-0.27

Sample `CS(=O)(=O)Nc1ccc2c(c1)C1(CCCCC1)CN2C(=O)c1cccc(S(=O)(=O)N2CC3(CCC3)C2)c1` ; log10 of Ki observed: 0.80

Sample CCS(=O)(=O)Nc1ccc2c(c1)[C@]1(CC[C@H](C(F)F)CC1)CN2C(=O)c1cccc(S(=O)(=O)NC(C)(C)C)c1 [Compound 333b] ; log10 of Ki observed: -0.11

Sample `COc1ccc(C(=O)N2CC3(CCC4(CC4)CC3)c3cc(NS(C)(=O)=O)ccc32)cc1S(=O)(=O)NC(C)(C)C` ; log10 of Ki observed: -0.42

Sample `CS(=O)(=O)Nc1ccc2c(c1)C1(CCC3(CC3)CC1)CN2C(=O)c1cccc(S(=O)(=O)NC2CC(F)(F)C2)c1` ; log10 of Ki observed: -0.19

Sample `CS(=O)(=O)Nc1ccc2c(c1)C1(CCCCC1)CN2C(=O)c1cccc(S(=O)(=O)C2CCCCC2)c1` ; log10 of Ki observed: 0.81

###

molecular target: hKIF18A (1-374) (Homo sapiens (Human), UniProt Q8NI77); assay: Inhibition of KIF18A microtubule-dependent ATPase activity (ADP-Glo); settings: KIF18A microtubule-dependent ATPase activity, biochemical assay
Sequence (Q8NI77 whole entry, looked up): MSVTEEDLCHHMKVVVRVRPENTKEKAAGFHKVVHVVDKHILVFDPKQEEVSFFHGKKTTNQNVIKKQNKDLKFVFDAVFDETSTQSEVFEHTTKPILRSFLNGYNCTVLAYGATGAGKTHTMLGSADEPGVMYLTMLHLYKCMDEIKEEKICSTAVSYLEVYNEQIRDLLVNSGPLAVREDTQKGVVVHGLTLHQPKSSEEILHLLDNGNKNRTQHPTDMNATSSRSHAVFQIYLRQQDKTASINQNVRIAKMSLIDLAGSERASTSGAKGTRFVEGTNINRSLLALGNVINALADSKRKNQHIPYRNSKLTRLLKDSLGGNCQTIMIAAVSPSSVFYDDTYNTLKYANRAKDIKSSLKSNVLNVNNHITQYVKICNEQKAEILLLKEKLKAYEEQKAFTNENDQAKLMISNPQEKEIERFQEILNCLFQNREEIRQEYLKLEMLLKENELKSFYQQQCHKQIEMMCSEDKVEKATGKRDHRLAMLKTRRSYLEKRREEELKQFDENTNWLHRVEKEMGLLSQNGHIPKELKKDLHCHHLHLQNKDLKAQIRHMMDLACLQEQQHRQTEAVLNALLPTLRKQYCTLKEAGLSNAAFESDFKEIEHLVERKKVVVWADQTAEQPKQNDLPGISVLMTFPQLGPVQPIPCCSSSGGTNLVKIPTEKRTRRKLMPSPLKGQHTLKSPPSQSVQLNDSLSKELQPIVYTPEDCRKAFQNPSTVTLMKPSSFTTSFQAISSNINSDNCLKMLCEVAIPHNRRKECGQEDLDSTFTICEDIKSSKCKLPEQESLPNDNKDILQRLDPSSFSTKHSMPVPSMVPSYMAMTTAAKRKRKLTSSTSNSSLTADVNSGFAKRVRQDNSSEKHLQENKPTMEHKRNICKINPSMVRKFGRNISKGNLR
Sequence (Q2XVP4 whole entry partner, looked up): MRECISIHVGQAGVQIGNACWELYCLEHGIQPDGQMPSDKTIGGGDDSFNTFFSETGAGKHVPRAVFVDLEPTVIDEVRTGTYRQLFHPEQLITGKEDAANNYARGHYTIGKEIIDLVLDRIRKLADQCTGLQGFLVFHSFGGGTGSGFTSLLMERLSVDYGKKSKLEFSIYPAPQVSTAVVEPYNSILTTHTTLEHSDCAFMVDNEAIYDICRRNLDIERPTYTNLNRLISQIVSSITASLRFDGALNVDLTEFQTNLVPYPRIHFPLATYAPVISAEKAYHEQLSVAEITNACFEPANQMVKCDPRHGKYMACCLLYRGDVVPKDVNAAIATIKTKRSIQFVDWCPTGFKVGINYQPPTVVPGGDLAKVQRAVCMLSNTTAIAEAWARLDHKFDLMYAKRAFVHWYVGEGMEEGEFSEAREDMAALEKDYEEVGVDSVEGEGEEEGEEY
Sequence (P02554 whole entry partner, looked up): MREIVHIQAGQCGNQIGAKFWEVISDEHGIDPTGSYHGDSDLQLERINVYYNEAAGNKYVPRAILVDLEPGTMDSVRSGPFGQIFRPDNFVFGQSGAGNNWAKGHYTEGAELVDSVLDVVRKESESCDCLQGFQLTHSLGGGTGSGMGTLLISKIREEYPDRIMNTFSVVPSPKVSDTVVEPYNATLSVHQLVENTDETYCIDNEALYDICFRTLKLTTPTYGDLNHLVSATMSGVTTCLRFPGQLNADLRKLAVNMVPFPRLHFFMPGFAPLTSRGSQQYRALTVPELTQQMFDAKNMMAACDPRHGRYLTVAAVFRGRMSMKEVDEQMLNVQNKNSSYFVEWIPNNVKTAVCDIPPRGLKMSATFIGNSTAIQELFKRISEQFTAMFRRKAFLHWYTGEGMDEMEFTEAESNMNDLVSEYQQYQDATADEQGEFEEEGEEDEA
Field 'label' (enum: Criterion met / Criterion not met). Set to Criterion met when IC50 is strictly under 100 nM; else Criterion not met.

Please review the entries below; each comes with its answer.
CS(=O)(=O)Nc1ccc2c(c1)C1(CCC3(CC3)CC1)CN2C(=O)c1cccc([C@@H](O)C2CCC2)c1 (single isomer, unassigned) [Compound 313a]	Criterion met
O=C(c1cccc(S(=O)(=O)C2CCCC2)c1)N1CC2(CCC3(CC3)CC2)c2cc(NS(=O)(=O)CCO)ccc21	Criterion met
CS(=O)(=O)Nc1ccc2c(c1)C1(CCC3(CC3)CC1)CN2C(=O)c1cccc(C(=O)C2CCCC2)c1	Criterion not met
O=C(c1cccc(S(=O)(=O)N2CCCCC2)c1)N1CC2(CCCCC2)c2cc(O)ccc21	Criterion not met
CS(=O)(=O)Nc1ccc2c(c1)C1(CCCCC1)CN2C(=O)c1cccc(S(=O)(=O)N2CCCC2)c1	Criterion not met

Input: Just wondering, is IC50 of CS(=O)(=O)Nc1ccc2c(c1)C1(CCC3(CC3)CC1)CN2C(=O)c1ccc(C(O)C2CC(F)(F)C2)o1 (stereo not shown) below 100 nM?
Output: Criterion met

###

target: hKIF18A (1-374) (Homo sapiens (Human), UniProt Q8NI77); test: Inhibition of KIF18A microtubule-dependent ATPase activity (ADP-Glo); details: KIF18A microtubule-dependent ATPase activity, biochemical assay
experimental-readout: log10(IC50) (log10 of the value in nM)
Scale type: logarithmic (base 10). Underlying IC50 unit: nM.

Record excerpt, results attached:
CS(=O)(=O)Nc1ccc2c(c1)C1(CCC3(CC3)CC1)CN2C(=O)c1cccc(S(=O)(=O)N2CCCC2)c1	1.28
CS(=O)(=O)Nc1ccc2c(c1)C1(CCCCC1)CN2C(=O)c1cccc(C(O)C2CCCC2)c1 (stereo not shown)	1.76
CCNc1ccc2c(c1)C1(CCC3(CC3)CC1)CN2C(=O)c1cccc(S(=O)(=O)N2CCC(F)(F)CC2)c1	2.26
CS(=O)(=O)Nc1ccc2c(c1)C1(CCC3(CC3)CC1)CN2C(=O)c1ccc(O)c(S(=O)(=O)N2CC(F)(F)C2)c1	0.91
CC(C)(C)NS(=O)(=O)c1cc(C(=O)N2CC3(CCC4(CC4)CC3)c3cc(NS(C)(=O)=O)ccc32)cs1	0.77
O=C(c1cccc(S(=O)(=O)N2CCC(F)(F)CC2)c1)N1CC2(CCC3(CC3)CC2)c2ccccc21	2.56

Sample CS(=O)(=O)Nc1ccc2c(c1)C1(CCCCC1)CN2C(=O)c1cccc(S(=O)(=O)N2CC3CC3C2)c1 (stereo not shown) ; log10(IC50) observed: 2.08
